Target: TRα (Homo sapiens)
Sequence (P10827 128-410 isoform P10827-2 limits assumed): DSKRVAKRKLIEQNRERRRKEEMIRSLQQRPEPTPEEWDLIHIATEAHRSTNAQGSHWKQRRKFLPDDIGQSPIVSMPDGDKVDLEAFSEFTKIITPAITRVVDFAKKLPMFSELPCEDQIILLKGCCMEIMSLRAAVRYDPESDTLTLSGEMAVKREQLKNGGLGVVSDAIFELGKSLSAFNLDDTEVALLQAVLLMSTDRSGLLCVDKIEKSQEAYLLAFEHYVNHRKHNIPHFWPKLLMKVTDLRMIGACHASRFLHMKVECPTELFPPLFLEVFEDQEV
Test: Thyroid-hormone reporter-gene assay, TRα (Gal4 DBD hybrid, luciferase, HEK293)
Settings: reporter cells derived from HEK293, 24 hr incubation, luciferase readout
METRIC: EC50

COMPOUND	EC50
O=C(O)COc1cc(Cl)c(Cc2ccc(O)c(C(c3ccc(F)cc3)C3CCC3)c2)c(Cl)c1 (centres unmarked)	> 1000 nM
O=C(O)COc1cc(Cl)c(Cc2ccc(O)c(-c3ccco3)c2)c(Cl)c1	> 1000 nM
O=C(O)COc1cc(Cl)c(Cc2ccc(O)c(Cc3ccc(F)cc3F)c2)c(Cl)c1	100 to 1000 nM

// query Request: EC50, test system TRα (Homo sapiens), entry O=C(O)COc1cc(Cl)c(Cc2ccc(O)c(CCc3ccc(F)cc3)c2)c(Cl)c1
// result > 1000 nM

// query Test system TRα (Homo sapiens); read-out EC50; what value for C=C(C)c1cccc(-c2cc(Cc3c(Cl)cc(OCC(=O)O)cc3Cl)ccc2O)c1 ?
// result > 1000 nM

// query What reported EC50 corresponds to O=C(O)COc1cc(Cl)c(Cc2ccc(O)c(-c3cccc(OC(F)F)c3F)c2)c(Cl)c1 on TRα (Homo sapiens)?
// result > 1000 nM

// query Return EC50 measured with TRα (Homo sapiens) given this compound: C[C@H](c1ccc(F)cc1)c1cc(Cc2c(Cl)cc(OCC(=O)O)cc2Cl)ccc1O (single isomer, unassigned)
// result 10 to 100 nM

// query Field: EC50 (TRα (Homo sapiens)). Entry: O=C(O)COc1cc(Cl)c(Cc2ccc(O)c(-c3cc(OC(F)F)ccc3F)c2)c(Cl)c1
// result 100 to 1000 nM

###

Target: TRβ (Homo sapiens)
Construct: expressed in transfected cells; host or cells: HEK293
Sequence (P10828 217-461 limits assumed): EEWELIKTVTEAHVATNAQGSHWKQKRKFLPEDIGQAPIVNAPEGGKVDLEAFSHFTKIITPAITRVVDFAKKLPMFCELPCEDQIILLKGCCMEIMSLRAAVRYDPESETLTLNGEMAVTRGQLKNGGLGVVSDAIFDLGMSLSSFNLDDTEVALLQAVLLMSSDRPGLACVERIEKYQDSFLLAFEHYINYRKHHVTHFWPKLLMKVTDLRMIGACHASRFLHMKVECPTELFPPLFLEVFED
Assay: Thyroid-hormone reporter-gene assay, TRβ (Gal4 DBD hybrid, luciferase, HEK293)
Format: cell-based
Settings: TRβ over TRα selectivity from reporter-gene EC50 values
METRIC: T3-SI, selectivity index (SI) calculated as EC50 (TRα)/EC50 (TRβ)

COMPOUND	MEASURED_RESULT
O=C(O)COc1cc(Cl)c(Cc2ccc(O)c(-c3cc(F)cc(OC(F)F)c3)c2)c(Cl)c1 [Compound 54]	++ (3X < T3-SI ≤ 30X)
O=C(O)COc1cc(Cl)c(Cc2ccc(O)c(Cc3ccc(Cl)cc3)c2)c(Cl)c1 [Compound 90]	++ (3X < T3-SI ≤ 30X)
CC(C)C(c1ccc(F)cc1)c1cc(Cc2c(Cl)cc(OCC(=O)O)cc2Cl)ccc1O (centres unmarked) [Compound 104]	++ (3X < T3-SI ≤ 30X)
Cc1cc(OCC(=O)O)cc(Cl)c1Cc1ccc(O)c(-c2cccc(C(F)(F)F)c2)c1 [Compound 64]	++ (3X < T3-SI ≤ 30X)
O=C(O)COc1cc(Cl)c(Cc2ccc(O)c(Cc3ccc(F)cc3)c2)c(Cl)c1 [Compound 70]	+++ (T3-SI > 30X)

// query Given the compound CCc1cccc(-c2cc(Cc3c(C)cc(OCC(=O)O)cc3Cl)ccc2O)c1 [Compound 60] , what is its reported T3-SI, selectivity index (SI) calculated as EC50 (TRα)/EC50 (TRβ)?
// result +++ (T3-SI > 30X)

// query # query: T3-SI, selectivity index (SI) calculated as EC50 (TRα)/EC50 (TRβ) of entry O=C(O)COc1cc(Cl)c(Cc2ccc(O)c(-c3cccc(OC(F)(F)F)c3)c2)c(Cl)c1 [Compound 12]
// result +++ (T3-SI > 30X)

// query Please give the measured T3-SI, selectivity index (SI) calculated as EC50 (TRα)/EC50 (TRβ) for this compound: Cc1cc(OCC(=O)O)cc(Br)c1Cc1ccc(O)c(C(C)c2ccc(F)cc2)c1 (centres unmarked) [Compound 131]
// result ++ (3X < T3-SI ≤ 30X)

Every entry's value here was drawn from patent US11667606B2.
